Below, each entry is listed alongside its reported indirubin.
test: Time course of conversion to indirubin in FaSSIF at 37° C.;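 also: test compound, about 1-3 mg in 5 mL FaSSIF, sampled and analysed by UPLC-MS with PDA UV (210-400 nm), QDa mass and evaporative light scattering detection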; type: physicochemical; conditions: FaSSIF 37° C., 1 h
// units = %; emit number, no label

Reported indirubin for O=C1/C(=C2/C(=O)N(CN3CCC3)c3ccccc32)Nc2ccccc21 [drawing 266] : what is it?
10

Same read-out for O=C1/C(=C2/C(=O)N(CO)c3ccccc32)Nc2ccccc21 [drawing 259] ?
14

Same read-out for O=C1/C(=C2/C(=O)N(CN3CCCC3)c3ccccc32)Nc2ccccc21 [drawing 255] ?
100

Same read-out for CC(=O)N1CCN(CN2C(=O)/C(=C3\Nc4ccccc4C3=O)c3ccccc32)CC1 [drawing 258] ?
12

Same read-out for O=C1/C(=C2/C(=O)N(CN3CCOCC3)c3ccccc32)Nc2ccccc21 [drawing 261] ?
6
